Recorded values, source ChEMBL document CHEMBL3046018.

Target: Protoporphyrinogen oxidase (Homo sapiens)
Sequence (P50336 whole entry): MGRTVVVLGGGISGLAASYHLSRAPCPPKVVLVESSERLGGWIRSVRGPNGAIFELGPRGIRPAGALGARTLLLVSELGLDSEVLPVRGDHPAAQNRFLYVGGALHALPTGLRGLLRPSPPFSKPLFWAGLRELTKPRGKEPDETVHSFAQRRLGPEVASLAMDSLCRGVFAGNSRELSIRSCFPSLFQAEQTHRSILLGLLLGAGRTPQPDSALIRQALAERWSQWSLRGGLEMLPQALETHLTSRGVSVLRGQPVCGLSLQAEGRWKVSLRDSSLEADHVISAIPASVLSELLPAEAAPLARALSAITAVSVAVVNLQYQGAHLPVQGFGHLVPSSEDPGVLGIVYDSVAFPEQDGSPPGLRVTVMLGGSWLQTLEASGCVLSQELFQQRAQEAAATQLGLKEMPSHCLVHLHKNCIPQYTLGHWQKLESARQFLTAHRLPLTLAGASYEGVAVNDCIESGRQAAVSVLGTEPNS
Assay: Inhibition of Homo sapiens (human) protoporphyrinogen oxidase
Settings: read-out: Ki
pKi: −log10 of the molar value.
Cut-off 5 on pKi, inclusive. At or above means Criterion met; below means Criterion not met.

Is reported pKi greater than or equal to 5 here: C=CCOC1C2=C(CCCC2)C(=O)N1c1cc(O)c(Br)cc1F (stereo not drawn)
Criterion not met

Is reported pKi greater than or equal to 5 here: Nc1cc(N2CC3=C(CCCC3)C2=O)ccc1Cl
Criterion not met

Is reported pKi greater than or equal to 5 here: C=CCOc1cc(N2CC3=C(CCCC3)C2=O)c(F)cc1Cl
Criterion met

Is reported pKi greater than or equal to 5 here: COc1cc(N2C(=O)C3=C(CCCC3)C2OC)c(F)cc1Cl (stereo not drawn)
Criterion met

Is reported pKi greater than or equal to 5 here: CCOC(=O)C(C)Oc1cc(N2C(=O)C3CCCCC3C2=O)c(F)cc1Cl (stereo not drawn)
Criterion met

Is reported pKi greater than or equal to 5 here: CCOC(=O)COc1cc(N2C(=O)C3CCCCC3C2=O)c(F)cc1Cl (stereo not drawn)
Criterion not met

###

System: Amaranthus retroflexus
Experiment: Herbicidal activity against Amaranthus retroflexus assessed as growth inhibition at 150 g ai/ha using post-emergence protocol under greenhouse conditions measured 15 days after compound treatment
Type: functional
Details: 360 h, read-out: GI
What inhibition of growth at 150 g/ha was measured for each of the following?
Give bare numbers, in %.

[
  {
    "compound": "CCOc1cc(N2CC3=C(CCCC3)C2=O)c(Cl)cc1Cl",
    "inhibition of growth at 150 g/ha / %": 50
  },
  {
    "compound": "COc1cc(N2C(=O)C3CCCCC3C2=O)c(F)cc1Cl (stereo not drawn)",
    "inhibition of growth at 150 g/ha / %": 100
  },
  {
    "compound": "CC(C)Oc1cc(N2CC3=C(CCCC3)C2=O)c(F)cc1Cl",
    "inhibition of growth at 150 g/ha / %": 100
  },
  {
    "compound": "COC1C2=C(CCCC2)C(=O)N1c1cc(OCc2cccc(Cl)c2)c(Cl)cc1F (stereo not drawn)",
    "inhibition of growth at 150 g/ha / %": 50
  },
  {
    "compound": "C=CCOc1cc(N2CC3=C(CCCC3)C2=O)c(F)cc1Cl",
    "inhibition of growth at 150 g/ha / %": 100
  }
]

Batch: inhibition of growth at 150 g/ha for all items listed.
1. CCOC(=O)C(C)Oc1cc(N2C(=O)C3CCCCC3C2=O)c(F)cc1Cl (stereo not drawn)
2. C=CCOc1cc(N2C(=O)C3=C(CCCC3)C2OCC=C)c(F)cc1Cl (stereo not drawn)
3. C=CCOC1C2=C(CCCC2)C(=O)N1c1cc(O)c(Br)cc1F (stereo not drawn)

[100, 100, 50]

###

Tested on: Digitaria sanguinalis
Assay: Herbicidal activity against Digitaria sanguinalis (hairy crabgrass) assessed as growth inhibition at 150 g ai/ha using post-emergence protocol under greenhouse conditions measured 15 days after compound treatment
Format: functional
Settings: 360 h, read-out: GI
What inhibition of growth at 150 g/ha was measured for each of the following?
Numbers only, in %.

[
  {
    "compound": "O=C1C2=C(CCCC2)C(O)N1c1cc(OCc2cccc(F)c2)c(Cl)cc1F (stereo not given)",
    "target_of_assay": "Digitaria sanguinalis",
    "assay_result": 50
  }
]

Please examine the following record next.
Reported inhibition of growth at 150 g/ha, compound C=CCOC1C2=C(CCCC2)C(=O)N1c1cc(OCC)c(Cl)cc1F (stereo not given) : ____
50
